assay: Blood levels of penciclovir in Pekin ducks after oral dosing with penciclovir or famciclovir; format: in vivo; settings: duck, 20 mg/kg, 240 min, oral penciclovir 20 mg/kg, Duck No. 169
measurementType: concentration at 4 h (nM)
The answer is to be given in nM; state only the numeric part.

Exam item: Can you share its concentration at 4 h? I mean this compound: Nc1nc2c(ncn2CCC(CO)CO)c(=O)[nH]1
Marked response: 2600

---

assay: Blood levels of penciclovir in Pekin ducks after oral dosing with penciclovir or famciclovir; type: in vivo; conditions: duck, 20 mg/kg, 30 min, oral penciclovir 20 mg/kg, Duck No. 139
measurementType: concentration at 0.5 h (µM)
The answer is to be given in µM; state only the numeric part.

Exam item: Can you share its concentration at 0.5 h? I mean this compound: Nc1nc2c(ncn2CCC(CO)CO)c(=O)[nH]1
Marked response: 28

---

assay: Blood levels of penciclovir in Pekin ducks after oral dosing with penciclovir or famciclovir; type: in vivo; details: duck, 20 mg/kg, 60 min, sample collected at 65 min, oral penciclovir 20 mg/kg, Duck No. 139
measurementType: concentration at 65 min (µM)
The answer is to be given in µM; state only the numeric part.

Exam item: Can you share its concentration at 65 min? I mean this compound: Nc1nc2c(ncn2CCC(CO)CO)c(=O)[nH]1 [penciclovir]
Marked response: 18

---

experiment: Blood levels of penciclovir in Pekin ducks after oral dosing with penciclovir or famciclovir; assay type: in vivo; settings: duck, 100 mg/kg, 360 min, oral penciclovir 100 mg/kg, Duck No. 163
measurementType: concentration at 6 h

Exam item: Can you share its concentration at 6 h? I mean this compound: Nc1nc2c(ncn2CCC(CO)CO)c(=O)[nH]1
Marked response: ~500 nM

---

assay: Blood levels of penciclovir in Pekin ducks after oral dosing with penciclovir or famciclovir; assay type: in vivo; details: duck, 25 mg/kg, 15 min, oral famciclovir 25 mg/kg, Duck No. 111
measurementType: concentration at 0.25 h
Answer format: number, then unit.

Exam item: Can you share its concentration at 0.25 h? I mean this compound: CC(=O)OCC(CCn1cnc2cnc(N)nc21)COC(C)=O [famciclovir]
Marked response: 22 µM

---

test: Blood levels of penciclovir in Pekin ducks after oral dosing with penciclovir or famciclovir; type: in vivo; details: duck, 100 mg/kg, 240 min, oral penciclovir 100 mg/kg, Duck No. 142
measurementType: concentration at 4 h
Answer format: number, then unit.

Exam item: Can you share its concentration at 4 h? I mean this compound: Nc1nc2c(ncn2CCC(CO)CO)c(=O)[nH]1 [penciclovir]
Marked response: 3.6 µM

---

experiment: Blood levels of penciclovir in Pekin ducks after oral dosing with penciclovir or famciclovir; format: in vivo; details: duck, 5 mg/kg, 60 min, oral famciclovir 5 mg/kg, Duck No. 154
measurementType: concentration at 1 h (µM)
The answer is to be given in µM; state only the numeric part.

Exam item: Can you share its concentration at 1 h? I mean this compound: CC(=O)OCC(CCn1cnc2cnc(N)nc21)COC(C)=O
Marked response: 3.5

---

test: Blood levels of penciclovir in Pekin ducks after oral dosing with penciclovir or famciclovir; type: in vivo; details: duck, 20 mg/kg, 240 min, oral penciclovir 20 mg/kg, Duck No. 139
measurementType: concentration at 4 h (nM)
The answer is to be given in nM; state only the numeric part.

Exam item: Can you share its concentration at 4 h? I mean this compound: Nc1nc2c(ncn2CCC(CO)CO)c(=O)[nH]1
Marked response: 2800
